Where these numbers come from: paper PMC11724289

# measuredTarget: T1, KOD-H4 DNA polymerase (UniProt D0VWU9 1-774, V93Q;I114T;D141A;E143A;S383K;K429G;F445L;A485L;Y493V;Y496H;Y497M;Y499F;A500E;R50 …)
# T1 sequence: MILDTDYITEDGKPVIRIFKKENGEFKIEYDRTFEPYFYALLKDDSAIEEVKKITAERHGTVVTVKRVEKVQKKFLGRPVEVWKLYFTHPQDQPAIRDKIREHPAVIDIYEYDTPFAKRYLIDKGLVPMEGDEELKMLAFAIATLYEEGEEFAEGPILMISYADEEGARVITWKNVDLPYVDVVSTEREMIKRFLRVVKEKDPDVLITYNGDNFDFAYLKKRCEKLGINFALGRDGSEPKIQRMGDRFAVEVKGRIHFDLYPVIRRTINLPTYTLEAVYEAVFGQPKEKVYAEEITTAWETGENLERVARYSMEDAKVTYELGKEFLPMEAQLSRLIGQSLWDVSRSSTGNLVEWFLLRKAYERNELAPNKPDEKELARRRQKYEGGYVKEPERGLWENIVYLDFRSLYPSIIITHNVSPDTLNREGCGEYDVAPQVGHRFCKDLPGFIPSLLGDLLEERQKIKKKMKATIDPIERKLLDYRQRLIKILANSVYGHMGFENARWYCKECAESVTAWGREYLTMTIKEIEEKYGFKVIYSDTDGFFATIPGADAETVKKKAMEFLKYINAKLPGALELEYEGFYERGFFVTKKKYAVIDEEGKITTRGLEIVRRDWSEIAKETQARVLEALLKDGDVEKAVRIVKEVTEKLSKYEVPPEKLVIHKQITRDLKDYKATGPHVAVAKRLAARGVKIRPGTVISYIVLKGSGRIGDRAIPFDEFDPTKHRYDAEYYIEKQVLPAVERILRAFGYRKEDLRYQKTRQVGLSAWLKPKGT
# experimentalProtocol: fluorescence polarization; 2 mM MgSO4; apparent KD, Hill slope 1.67; FP: 1x ThermoPol (20 mM Tris-HCl, 10 mM (NH4)2SO4, 10 mM KCl, 2 mM MgSO4, 0.1% Triton X-100, pH 8.8), 25 C, 20 min, 5 nM labeled primer
# cond: protein: recombinant; label: 5'-6-FAM on primer; 5' overhang 6 nt on template; 10-nt duplex
readout: Kd (nM)

# binder, endpointResult
records = [
    ("DNA primer/DNA template (FP) (dsDNA) DNA 1: GACCACGGCC DNA 2: AACTGTGGCCGTGGTC", 12.5),
]
